Tested System: T1, PD-L1-HIS recombinant protein (human, UniProt Q9NZQ7 19-238, limits assumed)
T1 construct: not shown: His tag
T1 sequence (Q9NZQ7 19-238 limits assumed): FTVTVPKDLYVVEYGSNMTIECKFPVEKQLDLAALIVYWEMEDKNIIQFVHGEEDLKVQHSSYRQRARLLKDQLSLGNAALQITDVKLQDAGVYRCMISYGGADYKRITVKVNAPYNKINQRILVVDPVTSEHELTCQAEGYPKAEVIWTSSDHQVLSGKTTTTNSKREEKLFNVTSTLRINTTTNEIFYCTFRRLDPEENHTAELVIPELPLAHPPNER
Assay Procedure: SPR (Biacore 8K), antibody captured on chip, PD-L1-HIS analyte 2.5-80 nM, 1:1 binding model
Binarize kon at 200000 M⁻¹ s⁻¹; below is 1 (yes), at or above is 0 (no).

[Q] Does AH01963 (antibody, human IgG1, V domains shown, also called mPD-L1Ab-CBM clone AH01963) VH: QVQLQESGPGLVKPSQTLSLTCTVSGYSITSGYTWHWIRQHPGKGLEWIGYIHYSGSTKYNPSLKSRVTISRDTSKNQFSLKLSSVTAADTAVYYCARNSLFASWGQGTLVTVSS VL: DIVLTQSPDSLAVSLGERATINCRASESVDTYGDSFMHWYQQKPGQPPKLLIYRASNLESGVPDRFSGSGSGTDFTLTISSVQAEDVAVYYCQQSNEAPYTFGGGTKLEIK have kon strictly under 200000 M⁻¹ s⁻¹?
[A] 0 (no)

[Q] Field: below-cutoff. Rule: recorded kon strictly less than 200000 M⁻¹ s⁻¹. Subject: AH02033 (antibody, human IgG1, V domains shown, also called mPD-L1Ab-5BM clone AH02033) VH: QVQLQESGPGLVKPSQTLSLTCTVTGYSITSGYTWHWIRQHPGKGLEWMGYIHYSGSTKYNPSLKSRFTISRDTSKNQFSLKLSSVTAADTAVYYCARNSLFASWGQGTLVTVSS VL: DIVLTQSPDSLAVSLGERATINCRASESVDTYGDSFMHWFQQKPGQPPKLLIYRASNLESGIPDRFSGSGSGTDFTLTISSLQAEDVAVYYCQQSNEAPYTFGGGTKLEIK
[A] 1 (yes)

[Q] Hi there! Is kon for AH01950 (antibody, human IgG1, V domains shown, also called mPD-L1Ab-CBM clone AH01950) VH: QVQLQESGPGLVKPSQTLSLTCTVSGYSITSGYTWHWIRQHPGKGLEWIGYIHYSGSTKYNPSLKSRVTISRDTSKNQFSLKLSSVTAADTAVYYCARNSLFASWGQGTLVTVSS VL: DIVLTQSPDSLAVSLGERATINCRASESVDTYGDSFMHWFQQKPGQPPKLLIYRASNLESGVPDRFSGSGSGTDFTLTISSLQAEDVAVYYCQQSNEAPYTFGGGTKLEIK below 200000 M⁻¹ s⁻¹, do you know?
[A] 1 (yes)

[Q] Is the reported kon for AH01964 (antibody, human IgG1, V domains shown, also called mPD-L1Ab-CBM clone AH01964) VH: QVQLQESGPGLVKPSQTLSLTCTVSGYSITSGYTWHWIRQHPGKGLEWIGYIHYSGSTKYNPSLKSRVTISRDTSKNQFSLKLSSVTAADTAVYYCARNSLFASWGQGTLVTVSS VL: DIVMTQSPDSLAVSLGERATINCRASESVDTYGDSFMHWYQQKPGQPPKLLIYRASNLESGVPDRFSGSGSGTDFTLTISSLQAEDVAVYYCQQSNEAPYTFGGGTKL strictly below 200000 M⁻¹ s⁻¹?
[A] 0 (no)

[Q] Could you please tell me whether kon recorded for AH01946 (antibody, human IgG1, V domains shown, also called mPD-L1Ab-CBM clone AH01946) VH: QVQLQESGPGLVKPSQTLSLTCTVSGYSITSGYTWHWIRQHPGKGLEWIGYIHYSGSTKYNPSLKSRVTISRDTSKNQFSLKLSSMTAADTAVYYCARNSLFASWGQGTLVTVSS VL: DIVLTQSPDSLAVSLGERATINCRASESVDTYGDSFMHWFQQKPGQPPKLLIYRASNLESGVPDRFSGSGSGTDFTLTISSVQAEDVAVYYCQQSNEAPYTFGGGTKLEIK is less than 200000 M⁻¹ s⁻¹?
[A] 1 (yes)

[Q] Threshold test, kon < 200000 M⁻¹ s⁻¹: AH02030 (antibody, human IgG1, V domains shown, also called mPD-L1Ab-5BM clone AH02030) VH: QVQLQESGPGLVKPSQTLSLTCTVTGYSITSGYTWHWIRQHPGKGLEWIGYIHYSGSTKYNPSLKSRFTITRDTSKNQFSLKLSSVTAADTAVYYCARNSLFASWGQGTLVTVSS VL: DIVLTQSPDSLAVSLGERATINCRASESVDTYGDSFMHWYQQKPGQPPKLLIYRASNLESGVPDRFSGSGSRTDFTLTISSLQAEDVAVYYCQQSNEAPYTFGGGTKLEIK
[A] 1 (yes)

[Q] Please determine if Chimeric antibody (antibody, V domains shown, also called mPD-L1Ab-Chim) VH: DVQLQESGPDLVKPSQSLSLTCTVTGYSITSGYTWHWIRQFPGNKLEWMGYIHYSGSTKYNPSLKSRFSITRDTSKNQFFLQLNSMTAEDTATYYCARNSLFASWGHGTLVTVSA VL: DIVLTQSPASLAVSLGQRATISCRASESVDTYGDSFMHWFQQKPGQPPKLLIYRASNLESGIPARFSGSGSRTDFTLTINPVEADDVATYYCQQSNEAPYTFGGGTKLEIK is below 200000 M⁻¹ s⁻¹ in terms of kon.
[A] 1 (yes)

These entries and their values trace back to patent US20220073618A1.
